Hello, the source for this data is paper PMC6426608, in case you need it.

Tested on: RhpR (Pseudomonas savastanoi pv. phaseolicola 1448A), ORF:976030cf
Sequence: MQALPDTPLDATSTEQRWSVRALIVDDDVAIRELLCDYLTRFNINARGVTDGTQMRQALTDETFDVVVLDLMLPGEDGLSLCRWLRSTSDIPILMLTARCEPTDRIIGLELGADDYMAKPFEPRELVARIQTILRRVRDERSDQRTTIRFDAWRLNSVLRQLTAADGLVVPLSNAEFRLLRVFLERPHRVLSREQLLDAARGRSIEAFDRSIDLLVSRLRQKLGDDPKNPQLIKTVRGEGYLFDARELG
experiment-description: EMSA
condition-set: EMSA: 40 ng probe in 20 ul of 10 mM Tris-HCl pH 7.4, 50 mM KCl, 5 mM MgCl2, 10% glycerol; room temperature 20 min; 6% PAGE, DNA dye
assay-endpoint: binding

>  <macromolecule-sequence>
TTCTCGAGTGAAATATCGACCTGAGGAAATTGCCCCTTTGATAATAGGACTCGCATGTATAATACCGGCCAAAACCGGACCAGCCGCCATTAACTTCTCTTCATGTAACGGCCATATCACCCCCGACTTGAACCGCCTTTTACTGCGTATGTGTCTGTTTTGGTACATTTCGCGACGCTCCAGCACTGGAAACGCCCGGGATCCAA (double strand) [ccmA promoter]

>  <observed-measurement>
binds

$$$$
>  <macromolecule-sequence>
TTGGATCCGACGGACCCTCGTGGGTAGCTCGGATGCTTGGGTGATAGCCCAAGCATCCGCCGTGTGCGAGGTACAACCATTGACCTGGCGCAATGAAGCAGCCTGATAGCAGACCGTTGGTCGAAGACTCTTCGGTCTACGTGTGCAGGGTGGCTGTTCTCGAGAA (double strand) [adhB promoter]

>  <observed-measurement>
binds

$$$$
